- Tested on: Nucleic Acid
- assayComment: Binding affinity to double strand RNA assessed as compound intercalation to double strand RNA at 50 uM after 1 hr by fluorescence polarization assay
- Assay type: nucleic-acid assay
readoutName: Activity (%)
Numeric answer only, unit % assumed.

query: Record lookup: for Nucleic Acid, what Activity belongs to COc1ccc(-c2nc3ccc([N+](=O)[O-])cc3nc2-c2ccc(OC)cc2)cc1 ?
result: 113

query: Record lookup: for Nucleic Acid, what Activity belongs to COc1ccc(-c2nc3ccccc3nc2-c2ccc(OC)cc2)cc1 ?
result: 1.4

query: Record lookup: for Nucleic Acid, what Activity belongs to COc1cccc(-c2nc3ccc([N+](=O)[O-])cc3nc2-c2cccc(OC)c2)c1 ?
result: 1.9

query: Record lookup: for Nucleic Acid, what Activity belongs to O=C(O)c1ccc2nc(-c3ccccn3)c(-c3ccccn3)nc2c1 ?
result: 2.9

query: Record lookup: for Nucleic Acid, what Activity belongs to O=C(NCc1ccco1)c1ccc2nc(-c3ccco3)c(-c3ccco3)nc2c1 ?
result: 5.9

query: Record lookup: for Nucleic Acid, what Activity belongs to O=[N+]([O-])c1ccc2nc(-c3ccco3)c(-c3ccco3)nc2c1 ?
result: 25.9

query: Record lookup: for Nucleic Acid, what Activity belongs to Oc1cccc(-c2nc3ccc(O)cc3nc2-c2cccc(O)c2)c1 ?
result: 18.2

query: Record lookup: for Nucleic Acid, what Activity belongs to Oc1ccc(-c2nc3ccc(O)cc3nc2-c2ccc(O)cc2)cc1 ?
result: 29.5

query: Record lookup: for Nucleic Acid, what Activity belongs to O=C(O)c1ccc2nc(-c3cccc(O)c3)c(-c3cccc(O)c3)nc2c1 ?
result: -3.4

query: Record lookup: for Nucleic Acid, what Activity belongs to COc1ccc(CNC(=O)c2ccc3nc(-c4ccco4)c(-c4ccco4)nc3c2)cc1 ?
result: 7.6

query: Record lookup: for Nucleic Acid, what Activity belongs to COc1cccc(CNC(=O)c2ccc3nc(-c4ccco4)c(-c4ccco4)nc3c2)c1 ?
result: 4.5

query: Record lookup: for Nucleic Acid, what Activity belongs to Oc1ccccc1-c1nc2ccccc2nc1-c1ccccc1O ?
result: -1

query: Record lookup: for Nucleic Acid, what Activity belongs to Oc1ccc(-c2nc3ccccc3nc2-c2ccc(O)cc2)cc1 ?
result: 8.5

query: Record lookup: for Nucleic Acid, what Activity belongs to O=C(O)c1ccc2nc(-c3ccco3)c(-c3ccco3)nc2c1 ?
result: 5.8

query: Record lookup: for Nucleic Acid, what Activity belongs to COc1ccc2nc(-c3ccco3)c(-c3ccco3)nc2c1 ?
result: -3.2

query: Record lookup: for Nucleic Acid, what Activity belongs to c1ccc(-c2nc3ccccc3nc2-c2ccccn2)nc1 ?
result: 2.3

query: Record lookup: for Nucleic Acid, what Activity belongs to O=C(NCc1ccc(F)cc1)c1ccc2nc(-c3ccco3)c(-c3ccco3)nc2c1 ?
result: 6.3

query: Record lookup: for Nucleic Acid, what Activity belongs to O=[N+]([O-])c1ccc2nc(-c3ccc4c(c3)OCO4)c(-c3ccc4c(c3)OCO4)nc2c1 ?
result: 24.4

query: Record lookup: for Nucleic Acid, what Activity belongs to Oc1ccc2nc(-c3ccccc3O)c(-c3ccccc3O)nc2c1 ?
result: 0.9

query: Record lookup: for Nucleic Acid, what Activity belongs to COc1ccc(-c2nc3ccc(OC)cc3nc2-c2ccc(OC)cc2)cc1 ?
result: 5.7

query: Record lookup: for Nucleic Acid, what Activity belongs to COc1ccc(CNC(=O)c2ccc3nc(-c4ccco4)c(-c4ccco4)nc3c2)cc1OC ?
result: 5.6

query: Record lookup: for Nucleic Acid, what Activity belongs to COC(=O)c1ccc(CNC(=O)c2ccc3nc(-c4ccco4)c(-c4ccco4)nc3c2)cc1 ?
result: 8.8

query: Record lookup: for Nucleic Acid, what Activity belongs to c1ccc2nc(-c3ccc4c(c3)OCO4)c(-c3ccc4c(c3)OCO4)nc2c1 ?
result: 7.9
